For each record, write down the corresponding IC50, ACTH-induced cAMP, MC5R cells.
assay-target: T1, human ACTH 1-39 (human, not fully specified; N-terminal biotin in the ELISA and HTRF binding assays (p-1487, p-1488); 125I on Tyr23 in Example 9 (p-1542); unlabelled in SPR. Letters unchanged.)
T1 peptide: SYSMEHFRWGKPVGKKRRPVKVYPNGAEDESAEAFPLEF
assay-protocol: cell-based or functional assay
Answers are plain numbers, in µM.

Here are 2 binders together with their reported answers.
>  <binder>
Ab5 (antibody, V domains shown) VH: QSVEESGGRLVTPGTPLTLTCTVSGFSLSSYAMSWVRQAPGEGLEWIGIISDSGSTYYASWAKGRFTISKTSTTVDLKITSPTTEDTATYFCAREPEYGYDDYGDWVSDLWGQGTLVTVSS VL: DIVMTQTPASVSEPVGGTVTIKCQASQSISSYLSWYQQKPGQPPKLLIYRASTLASGVPSRFKGSGSGTQFTLTISDLECADAATYYCQSYYYSSSITYRNAFGGGTEVVVKR

>  <metric-name>
IC50, ACTH-induced cAMP, MC5R cells

>  <unit-annotation>
µM

>  <numeric-value>
1

$$$$
>  <binder>
Ab2 (antibody, V domains shown) VH: QSVEESGGRLVTPGTPLTLTCTVSGFSLSKYDMIWVRQAPGKGLESIGIIYDDGDTYYASWAKGRFTISQTSTTVDLKIISPTTEDTATYFCVKGVSNIWGQGTLVTVSS VL: DVVMTQTPASVEAAVGGTVTIKCQASQSISNYLAWYQQKTGQPPKLLIYSASTLASGVPSRFKGSGSGTEFTLTISDLECADAATYYCQSYEGSSSSSYGVGFGGGTEVVVKR

>  <metric-name>
IC50, ACTH-induced cAMP, MC5R cells

>  <unit-annotation>
µM

>  <numeric-value>
1.1

$$$$

# ---- query binder ----
Endpoint output: IC50, ACTH-induced cAMP, MC5R cells of Ab10 (antibody, V domains shown) VH: QSVEESGGRLVTPGTPLTLTCTVSGFSLSSADMIWVRQAPGKGLESIGMIYDDGDTYYATWAKGRFTISKTSTTVDLKIISPTTEDTATYFCVKGVSSVWGQGTLVTVSS VL: DVVMTQTPASVEAAVGGTVTINCQASENIYRSLAWYQQKPGQPPKLLIYSASTLASGVPSRFKGSGSGTEFTLTISDLECADAATYYCQSYDGSSSSSYGVGFGGGTEVVVKR . Value?
5.4
